So I've got a bunch of molecules here, and I need their MIC values.
- Tested on: Citrobacter freundii
- TEST_DESCRIPTION: In vitro minimum inhibitory concentration for Citrobacter freundii (ATCC-8090) by agar dilution method
- Assay type: functional
- APPLIED_CONDITIONS: Citrobacter freundii; read-out: MIC
# include the unit after the value

MOLECULE	RECORDED_RESULT
CC(C)(O/N=C(\C(=O)NC1C(=O)N2C(C(=O)[O-])=C(CSc3nc(N)c4c([n+]3N)CCC4)CSC12)c1cnc(N)s1)C(=O)O (stereo not drawn)	0.03 µg/mL
CC(C)(O/N=C(\C(=O)NC1C(=O)N2C(C(=O)O)=C(CSc3nccc(O)n3)CSC12)c1cnc(N)s1)C(=O)O (stereo not drawn)	8 µg/mL
Cc1c(N)nc(SCC2=C(C(=O)[O-])N3C(=O)C(NC(=O)/C(=N\OC(C)(C)C(=O)O)c4cnc(N)s4)C3SC2)[n+]2ncn(C)c12 (stereo not drawn)	0.06 µg/mL
CC(C)(O/N=C(\C(=O)N[C@@H]1C(=O)N2C(C(=O)[O-])=C(C[n+]3ccccc3)CS[C@H]12)c1csc(N)n1)C(=O)O	0.13 µg/mL
CC(C)(O/N=C(\C(=O)NC1C(=O)N2C(C(=O)O)=C(CSc3nc(N)cc(N)n3)CSC12)c1cnc(N)s1)C(=O)O (stereo not drawn)	1 µg/mL
Cc1cc(C)nc(SCC2=C(C(=O)O)N3C(=O)C(NC(=O)/C(=N\OC(C)(C)C(=O)O)c4cnc(N)s4)C3SC2)n1 (stereo not drawn)	0.5 µg/mL
Cn1cc[n+]2c(SCC3=C(C(=O)[O-])N4C(=O)C(NC(=O)/C(=N\OC(C)(C)C(=O)O)c5cnc(N)s5)C4SC3)nc(N3CCOCC3)cc12 (stereo not drawn)	0.5 µg/mL
CC(C)(O/N=C(\C(=O)NC1C(=O)N2C(C(=O)[O-])=C(CSc3nc(N)cc[n+]3N)CSC12)c1cnc(N)s1)C(=O)O (stereo not drawn)	0.03 µg/mL
CC(C)(O/N=C(\C(=O)NC1C(=O)N2C(C(=O)[O-])=C(CSc3nc(N)cc(N)[n+]3C3CC3)CSC12)c1cnc(N)s1)C(=O)O (stereo not drawn)	0.13 µg/mL
CC(C)(O/N=C(\C(=O)NC1C(=O)N2C(C(=O)O)=C(CSc3nc(O)cc(O)n3)CSC12)c1cnc(N)s1)C(=O)O (stereo not drawn)	8 µg/mL

Record MIC per entry; entries follow.
1. CC(C)(O/N=C(\C(=O)NC1C(=O)N2C(C(=O)O)=C(CSc3nccc(N)n3)CSC12)c1cnc(N)s1)C(=O)O (stereo not drawn)
2. CC(C)(O/N=C(\C(=O)NC1C(=O)N2C(C(=O)[O-])=C(CSc3nc(N)cc(N)[n+]3-c3ccccc3)CSC12)c1cnc(N)s1)C(=O)O (stereo not drawn)
3. Cc1cccc(C)c1-[n+]1c(N)cc(N)nc1SCC1=C(C(=O)[O-])N2C(=O)C(NC(=O)/C(=N\OC(C)(C)C(=O)O)c3cnc(N)s3)C2SC1 (stereo not drawn)
4. C[n+]1c(O)cc(O)nc1SCC1=C(C(=O)[O-])N2C(=O)C(NC(=O)/C(=N\OC(C)(C)C(=O)O)c3cnc(N)s3)C2SC1 (stereo not drawn)
5. CNc1cc2n(C)cc[n+]2c(SCC2=C(C(=O)[O-])N3C(=O)C(NC(=O)/C(=N\OC(C)(C)C(=O)O)c4cnc(N)s4)C3SC2)n1 (stereo not drawn)
6. Cc1cc(C)[n+](C)c(SCC2=C(C(=O)[O-])N3C(=O)C(NC(=O)/C(=N\OC(C)(C)C(=O)O)c4cnc(N)s4)C3SC2)n1 (stereo not drawn)
7. C[n+]1cccnc1SCC1=C(C(=O)[O-])N2C(=O)C(NC(=O)/C(=N\OC(C)(C)C(=O)O)c3cnc(N)s3)C2SC1 (stereo not drawn)

Output:
1. 1 µg/mL
2. 0.25 µg/mL
3. 1 µg/mL
4. 4 µg/mL
5. 0.13 µg/mL
6. 0.25 µg/mL
7. 8 µg/mL
